As shown below, each of these molecules has a reported Population Mitochondria Different-Phenotype (%) value.
tested on: HEK-293T; experiment: Multiplex assay against HEK293T; format: toxicity, cell-based; settings: human, 12 h, 1 µM, compound concentration 1 uM, replicate 1
Write the number in % without appending the unit.

Use these answered entries as a reference point.
{"molecule": "Cl.Clc1ccc2nsnc2c1NC1=NCCN1 [TIZANIDINE HYDROCHLORIDE]", "assay_value": 36}
{"molecule": "Oc1c(CN2CCN(c3ccccn3)CC2)cc(Cl)c2cccnc12", "assay_value": 44}
{"molecule": "Cc1ccc(/C(=C\\CN2CCCC2)c2ccccn2)cc1", "assay_value": 45}

For the molecule `COc1cc(NC(=O)CCN2CCC(OC(=O)Nc3ccccc3-c3ccccc3)CC2)c(Cl)cc1CNC[C@H](O)c1ccc(O)c2[nH]c(=O)ccc12` , give its measured Population Mitochondria Different-Phenotype (%) value.
65

For the molecule `CC1(COc2ccc3c(c2)ncn3-c2ccc3cccc(N4CCC(N)CC4)c3n2)COC1` , give its measured Population Mitochondria Different-Phenotype (%) value.
23

====

tested on: U2OS; assay: Multiplex assay against U2OS; assay type: toxicity, cell-based; details: human, 12 h, 1 µM, compound concentration 1 uM, replicate 2
test_readout: Population Apoptotic (%)
Respond numerically; units are % and should not be typed.

Solved entries (count: 2):
{"molecule": "N[C@@]1(C(=O)O)CO[C@H]2[C@H](C(=O)O)[C@H]21 [LY-379268]", "unit_tag": "%", "assay_value": 100}
{"molecule": "O=C(O)c1cc2ccccc2c(Cc2c(O)c(C(=O)O)cc3ccccc23)c1O [PAMOIC ACID]", "unit_tag": "%", "assay_value": 50}

Next molecule, please.
Given the molecule CCCN1CCC[C@@H]2Cc3n[nH]cc3C[C@H]21.Cl [QUINPIROLE HYDROCHLORIDE] , write its reported Population Apoptotic (%).
61

====

system: HEK-293T; assay: Multiplex assay against HEK293T; type: toxicity, cell-based; settings: human, 48 h, 1 µM, compound concentration 1 uM, replicate 2
// NB: equality with 20% counts as no; only Population Tubulin-Different-Phenotype (%) strictly below is yes

Field: example entries. Status: answers known.
{"molecule": "CC(C)(C)c1ccc(S(=O)(=O)Nc2ccc(Cl)cc2C(=O)c2cc[n+]([O-])cc2)cc1 [VERCIRNON]", "class_assignment": "yes"}
{"molecule": "c1cc(OCCCN2CCCCC2)ccc1CN1CCCCC1 [JNJ-5207852]", "class_assignment": "yes"}
{"molecule": "CN1CCN(c2nc3cc(C(F)(F)F)ccc3n3cccc23)CC1.O=C(O)/C=C\\C(=O)O.O=C(O)/C=C\\C(=O)O", "class_assignment": "no"}
{"molecule": "O=C(NCC(=O)N1CC[C@H](N[C@H]2CC[C@@](O)(c3ccc(-c4ncccn4)cn3)CC2)C1)c1cccc(C(F)(F)F)c1 [PF-4136309]", "class_assignment": "yes"}
{"molecule": "CNC[C@H](O)c1ccc(O)c(O)c1 [EPINEPHRINE]", "class_assignment": "yes"}

Here is another molecule to look at.
Hi there! Is Population Tubulin-Different-Phenotype (%) for N[C@@]1(C(=O)O)CO[C@H]2[C@H](C(=O)O)[C@H]21 [LY-379268] below 20%, do you know?
yes
